experimental system: Cathepsin D (Homo sapiens)
Sequence (P07339 65-162 limits assumed): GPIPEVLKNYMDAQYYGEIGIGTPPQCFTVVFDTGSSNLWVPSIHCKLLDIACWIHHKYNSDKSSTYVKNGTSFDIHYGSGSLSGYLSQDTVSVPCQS
Sequence (P07339 169-412 limits assumed): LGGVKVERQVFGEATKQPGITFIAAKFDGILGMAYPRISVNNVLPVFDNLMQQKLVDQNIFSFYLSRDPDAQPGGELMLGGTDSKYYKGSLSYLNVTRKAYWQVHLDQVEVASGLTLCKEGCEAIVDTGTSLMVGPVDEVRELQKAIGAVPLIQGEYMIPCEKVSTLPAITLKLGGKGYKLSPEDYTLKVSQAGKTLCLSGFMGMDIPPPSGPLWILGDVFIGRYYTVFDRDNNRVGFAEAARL
experiment summary: Inhibitory concentration against the human Cathepsin D
pKi: −log10 of the molar value.
assay metric: pKi

COc1cccc(CCNC(=O)C[C@H](O)[C@H](COCc2ccc(-c3ccsc3)cc2)NC(=O)c2c(F)cc(F)cc2F)c1: 5.73

A = CC(C)C[C@H](NC(=O)[C@H](C)NC(=O)C[C@H](O)[C@H](COCc1cccc(Br)c1)NC(=O)[C@@H](NC(=O)c1ccccn1)C(C)C)C(N)=O
B = CCCCNC(=O)C[C@H](O)[C@H](COCc1ccc(-c2ccc3c(c2)OCO3)cc1)NC(=O)[C@@H](NC(=O)c1ccccn1)C(C)C
C = CC(C)C[C@H](NC(=O)[C@H](C)NC(=O)C[C@H](O)[C@H](COCc1ccc(-c2ccc3c(c2)OCO3)cc1)NC(=O)[C@@H](NC(=O)c1ccccn1)C(C)C)C(N)=O
D = O=C(C[C@H](O)[C@H](COCc1ccc(-c2ccsc2)cc1)NC(=O)c1c(F)cc(F)cc1F)NC1CCCCC1
Q. Order the records by pKi, with each subsequent value no larger than the one before. Returns: the labels arranged in the requested order.
A. C, A, B, D
